Cited source: paper PMC10813753

System: HT29 cells (colorectal)
TEST_PROTOCOL: MTT viability assay HT29
Assay type: cell-based, human
RECORDED_CONDITIONS: 72 h
MEASURE: pIC50
For clarity, pIC50 is expressed as the negative log10 of concentration in mol/L.

In: Any idea what pIC50 came out for N.N.[Cl][Pt][Cl] [cisplatin] on HT29 cells (colorectal)?
Out: 4.06

* * *

Test system: RWPE-1 cells (healthy prostate)
TEST_PROTOCOL: MTT viability assay RWPE-1
Type: cell-based, human
RECORDED_CONDITIONS: Homo sapiens, RWPE-1, 72 h
Reported IC50 by item:
Please respond with the number in µM and leave the unit unwritten.

MOL	MEASURE	UNIT_TAG	VALUE_OBSERVED
N=C(N)N/N=C/c1ccc2ccc3ccc(/C=N/NC(=N)N)nc3c2n1	IC50	µM	38.8

Now for another entry.
In: Bench note: what IC50 did C[n+]1cc(NC(=O)c2ccc3ccc4ccc(C(=O)Nc5cc6ccccc6[n+](C)c5)nc4c3n2)cc2ccccc21 show?
Out: 8.2
